Where these numbers come from: ChEMBL document CHEMBL3085721

Provide the recorded inhibition for the entries that follow.
target or test system: Ectonucleoside triphosphate diphosphohydrolase 8 (Homo sapiens)
protocol text: Inhibition of human NTPDase8 assessed as amount of inorganic phosphate released using ATP as the substrate preincubated at 100 uM for 3 mins before substrate addition after 15 mins by malachite green reagent method

{"smiles string": "B[P@](=O)(OC[C@H]1O[C@@H](n2cnc3c(N)nc(SC)nc32)[C@H](O)[C@@H]1O)OP(=O)(O)C(F)(F)P(=O)(O)O", "inhibition": "30%"}
{"smiles string": "B[P@@](=O)(OC[C@H]1O[C@@H](n2cnc3c(N)nc(SC)nc32)[C@H](O)[C@@H]1O)OP(=O)(O)CP(=O)(O)O", "inhibition": "< 18%"}
{"smiles string": "B[P@](=O)(OC[C@H]1O[C@@H](n2cnc3c(N)nc(SC)nc32)[C@H](O)[C@@H]1O)OP(=O)(O)CP(=O)(O)O", "inhibition": "< 18%"}
{"smiles string": "B[P@@](=O)(OC[C@H]1O[C@@H](n2cnc3c(N)ncnc32)[C@H](O)[C@@H]1O)OP(=O)(O)CP(=O)(O)O", "inhibition": "< 18%"}
{"smiles string": "B[P@@](=O)(OC[C@H]1O[C@@H](n2cnc3c(N)ncnc32)[C@H](O)[C@@H]1O)OP(=O)(O)C(Cl)(Cl)P(=O)(O)O", "inhibition": "30%"}

// for each compound in input: emit inhibition
1. B[P@@](=O)(OC[C@H]1O[C@@H](n2cnc3c(N)nc(SC)nc32)[C@H](O)[C@@H]1O)OP(=O)(O)C(F)(F)P(=O)(O)O
2. CSc1nc(N)c2ncn([C@@H]3O[C@H](COP(=O)(O)C(F)(F)P(=O)(O)O)[C@@H](O)[C@H]3O)c2n1
3. CSc1nc(N)c2ncn([C@@H]3O[C@H](COP(=O)(O)OP(=O)(O)CP(=O)(O)O)[C@@H](O)[C@H]3O)c2n1
4. B[P@](=O)(OC[C@H]1O[C@@H](n2cnc3c(N)ncnc32)[C@H](O)[C@@H]1O)OP(=O)(O)CP(=O)(O)O

**A:**
30%
< 18%
< 18%
< 18%
